target: 5-HT4 receptor (rat oesophageal tunica muscularis mucosae) (Rattus norvegicus); construct: oesophageal tunica muscularis mucosae excised from rats; from tissue; host or cells: rat oesophageal tunica muscularis mucosae; assay: 5-HT4 agonist activity: relaxation of carbachol-contracted rat oesophageal tunica muscularis mucosae; type: cell-based
Sequence (Q62758 whole entry): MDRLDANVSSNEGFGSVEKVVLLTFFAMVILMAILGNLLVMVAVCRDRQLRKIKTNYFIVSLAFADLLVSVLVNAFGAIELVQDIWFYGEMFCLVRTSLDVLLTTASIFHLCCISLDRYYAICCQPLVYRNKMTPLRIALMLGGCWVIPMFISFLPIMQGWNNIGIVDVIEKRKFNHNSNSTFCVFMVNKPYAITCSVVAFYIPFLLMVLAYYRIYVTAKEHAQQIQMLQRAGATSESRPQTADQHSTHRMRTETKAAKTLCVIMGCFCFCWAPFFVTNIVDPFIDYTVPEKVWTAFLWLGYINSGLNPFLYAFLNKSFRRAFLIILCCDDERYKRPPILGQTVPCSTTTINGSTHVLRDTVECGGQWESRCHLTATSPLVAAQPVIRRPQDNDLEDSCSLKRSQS
measured_property: pEC50
FYI, pEC50 means -log10 of a concentration in mol per litre.

Please review the following examples before continuing.
{"columns": ["molecular_string", "pEC50"],
 "data": [
  ["CCCCN1CCN(CCNC(=O)c2nn(C3CCCC3)c3ccccc23)CC1", 5.30],
  ["CCCn1nc(C(=O)NCCC2CCN(C)CC2)c2ccccc21", 4.97],
  ["CCCn1nc(C(=O)NC2CCN(Cc3ccccc3)CC2)c2ccccc21", 5.47],
  ["C=CCN1CCN(CCNC(=O)c2nn(CCC)c3ccccc23)CC1", 5.22],
  ["CCCn1nc(C(=O)NCCN2CCN(C)CC2)c2ccccc21", 4.69],
  ["CCCCCN1CCN(CCNC(=O)c2nn(CCC)c3ccccc23)CC1", 5.57],
  ["CCCn1nc(C(=O)NCCN2CCN(Cc3ccc(F)cc3)CC2)c2ccccc21", 5.17]
]}

Quick one: pEC50 for CCCCN1CCN(CCNC(=O)c2nn(CCC)c3ccccc23)CC1 ? 5.62
